Target: Acetylcholinesterase (Homo sapiens) (UniProt P22303)
Sequence (P22303 whole entry, looked up): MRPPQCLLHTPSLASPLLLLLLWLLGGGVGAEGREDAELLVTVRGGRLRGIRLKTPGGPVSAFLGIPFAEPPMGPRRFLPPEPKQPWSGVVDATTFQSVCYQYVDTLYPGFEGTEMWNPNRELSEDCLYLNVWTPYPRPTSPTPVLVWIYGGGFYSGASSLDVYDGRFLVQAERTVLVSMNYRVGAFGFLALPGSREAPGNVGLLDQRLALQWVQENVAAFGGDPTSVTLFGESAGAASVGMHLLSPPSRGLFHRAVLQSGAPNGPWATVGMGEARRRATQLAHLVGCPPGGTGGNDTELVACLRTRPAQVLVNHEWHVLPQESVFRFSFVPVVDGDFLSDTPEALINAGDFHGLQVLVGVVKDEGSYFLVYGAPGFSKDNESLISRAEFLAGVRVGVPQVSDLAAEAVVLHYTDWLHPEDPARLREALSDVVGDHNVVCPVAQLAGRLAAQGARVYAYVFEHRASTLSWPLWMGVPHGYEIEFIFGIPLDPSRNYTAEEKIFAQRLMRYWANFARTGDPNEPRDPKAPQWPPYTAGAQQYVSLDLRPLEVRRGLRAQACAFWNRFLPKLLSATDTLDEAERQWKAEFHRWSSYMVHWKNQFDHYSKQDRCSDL
Experiment: Acetylcholinesterase (AChE) small molecule antagonists: colormetric cell-based qHTS assay (AID 1347395); note: % is set by controls: 0 for no effect and ±100 for the full control effect; nearly all actives have a fitted effect of over 30% in size
Details: SH-SY5Y cells AChE activity, colorimetric (Ellman); series mostly up to 115 µM
Results filed as inconclusive are left out. Calls of active or inactive are those of the source. Calls come from the whole dose curve.
Measured Attribute: activity, negative = inhibition

Compound	Reported Value
C=C(C)C(=O)OCC(C)C	inactive
[Cl][Bi]([Cl])([c]1ccccc1)([c]1ccccc1)[c]1ccccc1	inactive
COC1CCC=CO1 (stereo unspecified)	inactive
Cc1cccc(C)c1[N+](=O)[O-]	inactive
Cc1ccc(C(C)C)c(O)c1	inactive
O=C(O)c1cc(Br)c(O)c(Br)c1	inactive
Cc1cn([C@@H]2O[C@H](CO)[C@@H](O)[C@@H]2F)c(=O)[nH]c1=O	inactive
S=C(NC1CCCCC1)NC1CCCCC1	inactive
CC[C@H]1OC(=O)[C@H](C)[C@@H](O[C@H]2C[C@@](C)(OC)[C@@H](O)[C@H](C)O2)[C@H](C)[C@@H](O[C@@H]2O[C@H](C)C[C@H](N(C)C)[C@H]2O)[C@](C)(O)C[C@@H](C)/C(=N\OCOCCOC)[C@H](C)[C@@H](O)[C@]1(C)O	inactive
N[C@@H](CCC(=O)O)C(=O)O	inactive
CC1=CC[C@@H]2C[C@H]1C2(C)C	7.66% [at 23.6 µM] (inactive)
